Test system: K. pneumoniae CQ1942
Experiment: Broth microdilution MIC, glycosides with or without polymyxins
Assay type: cell-based, Klebsiella pneumoniae
Details: Cpd conc. 6.25 μg/mL; strain E
measurement_label: MIC of colistin in combination with the compound (µg/mL)

INSERT INTO results (entry_smiles, reading) VALUES
  ('CCCCCCCCCCCCO[C@@H]1C[C@@H](O)[C@H](O)[C@@H](CO)O1', 0.5),
  ('CCCCCCCCCCCCO[C@H]1C[C@H](O)[C@@H](O)[C@H](C)O1', 0.25),
  ('CCCCCCCCCCCCO[C@@H]1O[C@H](C)C[C@H](O)[C@H]1O', 0.25),
  ('CCCCCCCCCCCC[C@H]1O[C@H](C)C[C@H](O)[C@H]1O', 0.25),
  ('CCCCCCCCCCCCO[C@H]1O[C@H](C)C[C@H](O)[C@H]1O', 0.25);

====

List of MIC of colistin in combination with the compound values.
Test system: E. coli ATCC 25922
Test: Broth microdilution MIC/MBC, glycosides with or without polymyxins
Type: cell-based, Escherichia coli
Conditions: Cpd conc. 6.25 μg/mL; strain A
measurement_label: MIC of colistin in combination with the compound (µg/mL)

INSERT INTO measurements (molecule, unit_of_measure, qualifier, reading) VALUES
  ('CCCCCCCCCCCCO[C@H]1C[C@H](O)[C@@H](O)[C@H](C)O1 [Compound 3]', 'µg/mL', '=', 0.25),
  ('CCCCCCCCCCCCO[C@H]1O[C@H](C)C[C@H](O)[C@H]1O [Compound 1]', 'µg/mL', '=', 0.25),
  ('CCCCCCCCCCCCO[C@@H]1O[C@H](C)C[C@H](O)[C@H]1O [Compound 2]', 'µg/mL', '≤', 0.06),
  ('CCCCCCCCCCCCO[C@@H]1C[C@@H](O)[C@H](O)[C@@H](CO)O1 [Compound 4]', 'µg/mL', '=', 0.5),
  ('CCCCCCCCCCCC[C@H]1O[C@H](C)C[C@H](O)[C@H]1O [Compound 5]', 'µg/mL', '=', 0.125);

====

Test system: K. pneumoniae CQ1942
Assay: Broth microdilution MIC, glycosides with or without polymyxins
Format: cell-based, Klebsiella pneumoniae
Settings: colistin 0.5 μg/mL; strain E
measurement_label: MIC of compound in combination with colistin

INSERT INTO results (entry_smiles, reading) VALUES
  ('CCCCCCCCCCCCO[C@H]1O[C@H](C)C[C@H](O)[C@H]1O', '0.8 µg/mL'),
  ('CCCCCCCCCCCC[C@H]1O[C@H](C)C[C@H](O)[C@H]1O', '≤ 0.1 µg/mL'),
  ('CCCCCCCCCCCCO[C@H]1C[C@H](O)[C@@H](O)[C@H](C)O1', '≤ 0.1 µg/mL'),
  ('CCCCCCCCCCCCO[C@@H]1C[C@@H](O)[C@H](O)[C@@H](CO)O1', '≤ 0.1 µg/mL'),
  ('CCCCCCCCCCCCO[C@@H]1O[C@H](C)C[C@H](O)[C@H]1O', '≤ 0.1 µg/mL');

====

Tested on: K. pneumoniae CQ1947
Test: Broth microdilution MIC, glycosides with or without polymyxins
Type: cell-based, Klebsiella pneumoniae
Conditions: compound + colistin, lowest FICI
measurement_label: FICI

INSERT INTO results (entry_smiles, target_under_test, reading) VALUES
  ('CCCCCCCCCCCCO[C@@H]1C[C@@H](O)[C@H](O)[C@@H](CO)O1', 'K. pneumoniae CQ1947', 1.002),
  ('CCCCCCCCCCCCO[C@@H]1O[C@H](C)C[C@H](O)[C@H]1O', 'K. pneumoniae CQ1947', 1.004),
  ('CCCCCCCCCCCCO[C@H]1O[C@H](C)C[C@H](O)[C@H]1O', 'K. pneumoniae CQ1947', 1.016),
  ('CCCCCCCCCCCC[C@H]1O[C@H](C)C[C@H](O)[C@H]1O', 'K. pneumoniae CQ1947', 0.52),
  ('CCCCCCCCCCCCO[C@H]1C[C@H](O)[C@@H](O)[C@H](C)O1', 'K. pneumoniae CQ1947', 1.002);
